Settings: 313.15 K; 101 kPa; Liquid
The following compounds are shown together with reported viscosity values.
Write down the numeric answer in mPa·s and omit the unit.

> print(dat)
                          compound  test.value
1                       COc1ccccc1       0.803
2                         C1COCCO1       0.934
3  CCCCCCOC(C)=O [hexyl ethanoate]       0.836
4        C1CCOC1 [tetrahydrofuran]       0.404

Now let's try a different one.
Task: Dear colleague, I am looking for the recorded viscosity of the following compound: C=COCCCC [1-(ethenyloxy)butane]
Result: 0.354
